List of MRT last values.
Assay: in vivo
Conditions: male, Syrian golden, hamster, po, 500 mg/kg, MRT0-last
Measured metric: MRT last (h)

[[record]]
compound = "C[C@@]1(F)[C@H](O)[C@@H](CO)O[C@H]1n1cnc2c(=O)[nH]c(N)nc21 [AT-273]"
measured_metric = "MRT last"
endpoint_value = 11.6

[[record]]
compound = "CNc1nc(N)nc2c1ncn2C1OC(COP(=O)(NC(C)C(=O)OC(C)C)Oc2ccccc2)C(O)C1(C)F (stereo not shown) [AT-281]"
measured_metric = "MRT last"
endpoint_value = 4.2

[[record]]
compound = "CNc1nc(N)nc2c1ncn2C1OC(COP(=O)(O)NC(C)C(=O)O)C(O)C1(C)F (stereo not shown) [AT-551]"
measured_metric = "MRT last"
endpoint_value = 8.5

[[record]]
compound = "C[C@@]1(F)[C@H](O)[C@@H](COP(=O)(O)OP(=O)(O)OP(=O)(O)O)O[C@H]1n1cnc2c(=O)[nH]c(N)nc21 [AT-9010]"
measured_metric = "MRT last"
endpoint_value = 11

